Biological target: HSP-90 (Homo sapiens, UniProt P07900)
Construct: fused on or other part: 6-His tag at the C-terminus
Experiment: HSP-90 SPA (scintillation proximity assay) competition binding assay, displacement of tritiated propyl-Geldanamycin
Settings: read-out: % inhibition @ 1 μM
observable: inhibition at 1 µM (%)
Report as a plain number; the unit % is understood.

INSERT INTO results (molecule, recorded_number) VALUES
  ('COc1ccccc1-c1nnc([C@H]2CCCN2C(=O)c2ccc(O)cc2O)o1', 9),
  ('O=C(c1ccc(O)cc1O)N1CCC(Cc2ccc(Cl)cc2)CC1', 35.9),
  ('O=C(c1ccc(O)cc1O)N1CCC(c2ccnc(C(F)(F)F)n2)CC1', 10.1),
  ('CC1CCN(C(=O)c2ccc(O)cc2O)CC1', 59.9);

Returns the measured inhibition at 1 µM for the input compound. Input: COc1ccc2oc(N3CCN(C(=O)c4ccc(O)cc4O)CC3)nc2c1
21.1

----------
Molecular target: HSP-90 (Homo sapiens)
Construct: fused on or other part: 6-His tag at the C-terminus
Test: HSP-90 SPA (scintillation proximity assay) competition binding assay, displacement of tritiated propyl-Geldanamycin
Conditions: read-out: % inhibition @ 10 μM
Method: Compounds of the present invention were evaluated for potency against HSP-90 using a SPA (scintillation proximity assay) competition binding assay. […] Tritiated pGA, which contains a tritiated propyl-amine group added at the #17 position, binds HSP-90 and brings the isotope into proximity with the beads. […] This reduction in signal is used to quantify the extent to which the inhibitor/compound is competitive with pGA. […]
Form field: inhibition at 10 µM (one value per entry).
Report as a plain number; the unit % is understood.

INSERT INTO assay_data (compound, observable, recorded_number) VALUES
  ('O=C(c1ccc(O)cc1O)N1CCCCC1', 'inhibition at 10 µM', 72),
  ('O=C(c1ccc(O)cc1O)N1CCC(CCc2ccccc2)C1 (stereo not shown)', 'inhibition at 10 µM', 87),
  ('Cc1ccccc1C1(O)CCN(C(=O)c2ccc(O)cc2O)C1 (stereo not shown)', 'inhibition at 10 µM', 79.1),
  ('COc1cc(C2=NOC3(COCCN(C(=O)c4ccc(O)cc4O)C3)C2)ccc1F (stereo not shown)', 'inhibition at 10 µM', 88.5),
  ('O=C(c1ccc(O)cc1O)N1CCC(CCc2ncccn2)CC1', 'inhibition at 10 µM', 77.1),
  ('O=C(c1ccc(O)cc1O)N1CCOCC(COCC2CC2)C1 (stereo not shown)', 'inhibition at 10 µM', 64.1),
  ('CCc1nc(COCC2CCN(C(=O)c3ccc(O)cc3O)C2)no1 (stereo not shown)', 'inhibition at 10 µM', 72.5),
  ('C[C@H](c1cccc2ccccc12)N(C)C(=O)c1ccc(O)cc1O', 'inhibition at 10 µM', 73.8);

Returns the measured inhibition at 10 µM for the input compound. Input: O=C(c1ccc(O)cc1O)N1CCC(Cc2ccc(Cl)cc2)CC1
73.6

Returns the measured inhibition at 10 µM for the input compound. Input: O=C(c1ccc(O)cc1O)N1CCC2(CC1)OCc1ccccc12
81.3

Returns the measured inhibition at 10 µM for the input compound. Input: O=C(c1ccc(O)cc1O)N1CCC(CCc2ccccc2)CC1
86.3

Returns the measured inhibition at 10 µM for the input compound. Input: O=C(c1ccc(O)cc1O)N1CCC2(CC1)CC(OCc1ccccc1F)CO2 (stereo not shown)
70.9

----------
Biological target: HSP-90 (Homo sapiens, UniProt P07900)
Construct: fused on or other part: 6-His tag at the C-terminus
Experiment: HSP-90 SPA (scintillation proximity assay) competition binding assay, displacement of tritiated propyl-Geldanamycin
Conditions: read-out: % inhibition @ 10 μM
Mark false for inhibition at 10 µM values under 70%, and true for everything at or above.

Quick check, inhibition at 10 µM >= 70%? C[C@@H](c1ccccc1)N(C)C(=O)c1ccc(O)cc1O [Example 66]
true

----------
Target: HSP-90 (Homo sapiens, UniProt P07900)
Construct: fused on or other part: 6-His tag at the C-terminus
Experiment: HSP-90 SPA (scintillation proximity assay) competition binding assay, displacement of tritiated propyl-Geldanamycin
Settings: read-out: % inhibition @ 1 μM
observable: inhibition at 1 µM (%)
Report as a plain number; the unit % is understood.

Look over these answered cases.
INSERT INTO results (compound, observable, recorded_number) VALUES
  ('Cc1nccc(-c2ccc(O)c(C(=O)N3Cc4ccccc4C3)c2)n1 [Example 35]', 'inhibition at 1 µM', 6.1),
  ('Cc1ccc(OC2CCN(C(=O)c3ccc(O)cc3O)CC2)cc1 [Example 74]', 'inhibition at 1 µM', 47.7),
  ('CN(Cc1nnc(-c2ccc(F)cc2)o1)C(=O)c1ccc(O)cc1O [Example 119]', 'inhibition at 1 µM', 50.9),
  ('O=C(c1ccc(O)cc1O)N1CCC(Oc2ccc(Cl)cc2)CC1 [Example 68]', 'inhibition at 1 µM', 37.2);

Returns the measured inhibition at 1 µM for the input compound. Input: O=C(c1ccc(O)cc1O)N1CCC2(CC1)OCc1ccccc12 [Example 80]
42

Returns the measured inhibition at 1 µM for the input compound. Input: Nc1nccc(-c2ccc(O)c(C(=O)N3Cc4ccccc4C3)c2)n1 [Example 31]
8.1

Returns the measured inhibition at 1 µM for the input compound. Input: O=C(c1ccc(O)cc1O)N1CCC(Oc2ccccc2)CC1 [Example 71]
37.3

Returns the measured inhibition at 1 µM for the input compound. Input: O=C(c1ccc(O)cc1O)N1CCC(c2ccccc2)C1 (stereo not drawn) [Example 93]
34.5

Returns the measured inhibition at 1 µM for the input compound. Input: O=C(c1ccc(O)cc1O)N1CCOC(COc2ccc(F)cc2Cl)C1 (stereo not drawn) [Example 115]
60.3

----------
Target: HSP-90 (Homo sapiens, UniProt P07900)
Construct: fused on or other part: 6-His tag at the C-terminus
Assay: HSP-90 SPA (scintillation proximity assay) competition binding assay, displacement of tritiated propyl-Geldanamycin
Conditions: read-out: % inhibition @ 1 μM
Mark not fulfilled for inhibition at 1 µM values under 30%, and fulfilled for everything at or above.

INSERT INTO assay_data (compound, system_tested, category_label) VALUES
  ('O=C(c1ccc(O)cc1O)N1CCOCC(Cc2ccc(Cl)c(Cl)c2)C1 (stereo not shown) [Example 99]', 'HSP-90 (Homo sapiens, UniProt P07900)', 'fulfilled');

Quick check, inhibition at 1 µM >= 30%? C[C@@H](c1ccccc1)N(C)C(=O)c1ccc(O)cc1O [Example 66]
fulfilled

Quick check, inhibition at 1 µM >= 30%? CCOC(=O)C1CCCN(C(=O)c2ccc(O)cc2O)C1 (stereo not shown) [Example 52]
fulfilled

Quick check, inhibition at 1 µM >= 30%? C[C@H]([C@@H](O)c1ccccc1)N(C)C(=O)c1ccc(O)cc1O [Example 53]
not fulfilled

----------
Biological target: HSP-90 (Homo sapiens)
Construct: fused on or other part: 6-His tag at the C-terminus
Assay: HSP-90 SPA (scintillation proximity assay) competition binding assay, displacement of tritiated propyl-Geldanamycin
Settings: read-out: % inhibition @ 1 μM
Mark not met for inhibition at 1 µM values under 20%, and met for everything at or above.

INSERT INTO measurements (compound, category_label) VALUES
  ('O=C(c1ccc(O)cc1O)N1CCOCC(O)(COC2CCCC2)C1 (stereo not drawn)', 'met');

Quick check, inhibition at 1 µM >= 20%? O=C(c1ccc(O)cc1O)N1CCOCC(COCC2CC2)C1 (stereo not drawn)
met

Quick check, inhibition at 1 µM >= 20%? O=C(c1ccc(O)cc1O)N1CCC(c2cccc(Cl)c2)C1 (stereo not drawn)
met

Quick check, inhibition at 1 µM >= 20%? CN(C(=O)c1ccc(O)cc1O)[C@H]1CCCC[C@@H]1O
not met

Quick check, inhibition at 1 µM >= 20%? O=C(c1ccc(O)cc1O)N1CCOCC2(CC(c3ccccc3)=NO2)C1 (stereo not drawn)
met

Quick check, inhibition at 1 µM >= 20%? C[C@H](c1ccccc1)N(C)C(=O)c1ccc(O)cc1O
not met

Quick check, inhibition at 1 µM >= 20%? Cc1ccc(O)c(C(=O)N2Cc3ccccc3C2)c1
not met

Quick check, inhibition at 1 µM >= 20%? COc1ccc(F)c(C2=NOC3(COCCN(C(=O)c4ccc(O)cc4O)C3)C2)c1 (stereo not drawn)
met

Quick check, inhibition at 1 µM >= 20%? O=C(c1ccc(O)cc1O)N1CCOCC(COCc2c(Cl)cccc2Cl)C1 (stereo not drawn)
met

----------
Form field: inhibition at 10 µM (one value per entry).
Target: HSP-90 (Homo sapiens)
Construct: fused on or other part: 6-His tag at the C-terminus
Assay: HSP-90 SPA (scintillation proximity assay) competition binding assay, displacement of tritiated propyl-Geldanamycin
Conditions: read-out: % inhibition @ 10 μM
Method: Compounds of the present invention were evaluated for potency against HSP-90 using a SPA (scintillation proximity assay) competition binding assay. […] Tritiated pGA, which contains a tritiated propyl-amine group added at the #17 position, binds HSP-90 and brings the isotope into proximity with the beads. […] This reduction in signal is used to quantify the extent to which the inhibitor/compound is competitive with pGA. […]
Report as a plain number; the unit % is understood.

Look over these answered cases.
INSERT INTO assay_data (compound, observable, recorded_number) VALUES
  ('O=C(c1ccc(F)cc1O)N1Cc2ccccc2C1', 'inhibition at 10 µM', 26.6),
  ('O=C(c1ccc(O)cc1O)N1CCOC(COc2ccccc2)C1 (stereo not drawn)', 'inhibition at 10 µM', 80.5),
  ('O=C1CCCN1Cc1nnc2n1CCN(C(=O)c1ccc(O)cc1O)CC2', 'inhibition at 10 µM', 12.2),
  ('O=C(c1ccc(O)cc1O)N1CCN(c2nc3ccc(Cl)cc3o2)CC1', 'inhibition at 10 µM', 59.8);

Returns the measured inhibition at 10 µM for the input compound. Input: COc1ccccc1-c1nnc([C@H]2CCCN2C(=O)c2ccc(O)cc2O)o1
22.4

Returns the measured inhibition at 10 µM for the input compound. Input: CN(Cc1nnc(-c2ccc(F)cc2)o1)C(=O)c1ccc(O)cc1O
82.8

Returns the measured inhibition at 10 µM for the input compound. Input: CN(Cc1nc2ccccc2o1)C(=O)c1ccc(O)cc1O
65.6

Returns the measured inhibition at 10 µM for the input compound. Input: Cc1cc(C)c2c(c1)CCC1(CCN(C(=O)c3ccc(O)cc3O)CC1)O2
82

Returns the measured inhibition at 10 µM for the input compound. Input: O=C(c1ccc(O)cc1O)N1CCCCC1CCC1CCCC1 (stereo not drawn)
90.5
